Give measured Ks for each item. Keep answers brief.
test system: Tyrosine-protein kinase Lck (Homo sapiens) (UniProt P06239)
Sequence (P06239 2-509 limits assumed): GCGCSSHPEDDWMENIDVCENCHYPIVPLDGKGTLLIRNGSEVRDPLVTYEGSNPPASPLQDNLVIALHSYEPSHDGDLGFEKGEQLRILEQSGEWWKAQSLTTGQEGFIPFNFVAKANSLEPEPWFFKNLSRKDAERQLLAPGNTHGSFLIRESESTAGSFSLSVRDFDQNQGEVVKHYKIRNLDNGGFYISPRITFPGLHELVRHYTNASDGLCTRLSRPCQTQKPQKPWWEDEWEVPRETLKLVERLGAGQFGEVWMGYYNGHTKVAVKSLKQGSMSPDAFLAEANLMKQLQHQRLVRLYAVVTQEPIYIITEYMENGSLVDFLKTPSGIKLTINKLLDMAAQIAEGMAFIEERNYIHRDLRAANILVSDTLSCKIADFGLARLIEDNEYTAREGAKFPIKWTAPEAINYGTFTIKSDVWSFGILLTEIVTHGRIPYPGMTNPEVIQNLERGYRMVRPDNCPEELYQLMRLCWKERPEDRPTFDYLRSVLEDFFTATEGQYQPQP
run description: Equilibrium constant for competitive binding to p56 lck SH2 domain by SPR after 1st run
Just the number in nM, nothing appended.

Look up Ks for this molecule: NC(=O)CC[C@H](NC(=O)CNC(=O)[C@@H](N)CCC(=O)O)C(=O)N[C@@H](Cc1ccc(OP(=O)(O)O)cc1)C(=O)N[C@@H](CCC(=O)O)C(=O)N[C@@H](CCC(=O)O)C(=O)NCC(=O)N1CCC[C@@H]1C(=O)O
833

Look up Ks for this molecule: CC[C@H](C)[C@H](NC(=O)[C@H](CCC(=O)O)NC(=O)CNC(=O)[C@H](Cc1ccc(OP(=O)(O)O)cc1)NC(=O)CNC(=O)[C@H](CCC(N)=O)NC(=O)[C@@H](N)CCC(=O)O)C(=O)N1CCC[C@@H]1C(=O)O
1320

Look up Ks for this molecule: CC[C@H](C)[C@H](NC(=O)[C@H](CCC(=O)O)NC(=O)[C@H](CCC(=O)O)NC(=O)[C@H](Cc1ccc(OP(=O)(O)O)cc1)NC(=O)[C@H](CCC(N)=O)NC(=O)CNC(=O)[C@@H](N)CCC(=O)O)C(=O)N1CCC[C@@H]1C(=O)O
14.4

Look up Ks for this molecule: CC[C@H](C)[C@H](NC(=O)CNC(=O)[C@H](CCC(=O)O)NC(=O)[C@H](Cc1ccc(OP(=O)(O)O)cc1)NC(=O)[C@H](CCC(N)=O)NC(=O)CNC(=O)[C@@H](N)CCC(=O)O)C(=O)N1CCC[C@@H]1C(=O)O
171

* * *

test system: Tyrosine-protein kinase Lck (Homo sapiens)
run description: Equilibrium constant for competitive binding to p56 lck SH2 domain by SPR after 2nd run
Give measured Ks for each item. Keep answers brief.
Mention the unit after the number when you answer.

Look up Ks for this molecule: CC[C@H](C)[C@H](NC(=O)CNC(=O)[C@H](CCC(=O)O)NC(=O)[C@H](Cc1ccc(OP(=O)(O)O)cc1)NC(=O)[C@H](CCC(N)=O)NC(=O)CNC(=O)[C@@H](N)CCC(=O)O)C(=O)N1CCC[C@@H]1C(=O)O
167 nM

Look up Ks for this molecule: CC[C@H](C)[C@H](NC(=O)[C@H](CCC(=O)O)NC(=O)CNC(=O)[C@H](Cc1ccc(OP(=O)(O)O)cc1)NC(=O)CNC(=O)[C@H](CCC(N)=O)NC(=O)[C@@H](N)CCC(=O)O)C(=O)N1CCC[C@@H]1C(=O)O
982 nM

Look up Ks for this molecule: CC[C@H](C)[C@H](NC(=O)[C@H](CCC(=O)O)NC(=O)[C@H](CCC(=O)O)NC(=O)[C@H](Cc1ccc(OP(=O)(O)O)cc1)NC(=O)[C@H](CCC(N)=O)NC(=O)CNC(=O)[C@@H](N)CCC(=O)O)C(=O)N1CCC[C@@H]1C(=O)O
22.8 nM

Look up Ks for this molecule: NC(=O)CC[C@H](NC(=O)CNC(=O)[C@@H](N)CCC(=O)O)C(=O)N[C@@H](Cc1ccc(OP(=O)(O)O)cc1)C(=O)N[C@@H](CCC(=O)O)C(=O)N[C@@H](CCC(=O)O)C(=O)NCC(=O)N1CCC[C@@H]1C(=O)O
916 nM

* * *

test system: Tyrosine-protein kinase Lck (Homo sapiens) (UniProt P06239)
run description: Equilibrium constant for competitive binding to p56 lck SH2 domain by SPR after 4th run
Give measured Ks for each item. Keep answers brief.
Just the number in nM, nothing appended.

Look up Ks for this compound: CC[C@H](C)[C@H](NC(=O)[C@H](CCC(=O)O)NC(=O)CNC(=O)[C@H](Cc1ccc(OP(=O)(O)O)cc1)NC(=O)CNC(=O)[C@H](CCC(N)=O)NC(=O)[C@@H](N)CCC(=O)O)C(=O)N1CCC[C@@H]1C(=O)O
1250

Look up Ks for this compound: CC[C@H](C)[C@H](NC(=O)CNC(=O)[C@H](CCC(=O)O)NC(=O)[C@H](Cc1ccc(OP(=O)(O)O)cc1)NC(=O)[C@H](CCC(N)=O)NC(=O)CNC(=O)[C@@H](N)CCC(=O)O)C(=O)N1CCC[C@@H]1C(=O)O
261

Look up Ks for this compound: CC[C@H](C)[C@H](NC(=O)[C@H](CCC(=O)O)NC(=O)[C@H](CCC(=O)O)NC(=O)[C@H](Cc1ccc(OP(=O)(O)O)cc1)NC(=O)[C@H](CCC(N)=O)NC(=O)CNC(=O)[C@@H](N)CCC(=O)O)C(=O)N1CCC[C@@H]1C(=O)O
27.8

Look up Ks for this compound: NC(=O)CC[C@H](NC(=O)CNC(=O)[C@@H](N)CCC(=O)O)C(=O)N[C@@H](Cc1ccc(OP(=O)(O)O)cc1)C(=O)N[C@@H](CCC(=O)O)C(=O)N[C@@H](CCC(=O)O)C(=O)NCC(=O)N1CCC[C@@H]1C(=O)O
938

* * *

Give measured Ks for each item. Keep answers brief.
test system: Tyrosine-protein kinase Lck (Homo sapiens) (UniProt P06239)
run description: Equilibrium constant for competitive binding to p56 lck SH2 domain by SPR after 3rd run
Just the number in nM, nothing appended.

Look up Ks for this compound: CC[C@H](C)[C@H](NC(=O)[C@H](CCC(=O)O)NC(=O)CNC(=O)[C@H](Cc1ccc(OP(=O)(O)O)cc1)NC(=O)CNC(=O)[C@H](CCC(N)=O)NC(=O)[C@@H](N)CCC(=O)O)C(=O)N1CCC[C@@H]1C(=O)O
1220

Look up Ks for this compound: CC[C@H](C)[C@H](NC(=O)[C@H](CCC(=O)O)NC(=O)[C@H](CCC(=O)O)NC(=O)[C@H](Cc1ccc(OP(=O)(O)O)cc1)NC(=O)[C@H](CCC(N)=O)NC(=O)CNC(=O)[C@@H](N)CCC(=O)O)C(=O)N1CCC[C@@H]1C(=O)O
26.9

Look up Ks for this compound: NC(=O)CC[C@H](NC(=O)CNC(=O)[C@@H](N)CCC(=O)O)C(=O)N[C@@H](Cc1ccc(OP(=O)(O)O)cc1)C(=O)N[C@@H](CCC(=O)O)C(=O)N[C@@H](CCC(=O)O)C(=O)NCC(=O)N1CCC[C@@H]1C(=O)O
908

Look up Ks for this compound: CC[C@H](C)[C@H](NC(=O)CNC(=O)[C@H](CCC(=O)O)NC(=O)[C@H](Cc1ccc(OP(=O)(O)O)cc1)NC(=O)[C@H](CCC(N)=O)NC(=O)CNC(=O)[C@@H](N)CCC(=O)O)C(=O)N1CCC[C@@H]1C(=O)O
242
